- System: COR L88 complex tumor spheroid viability
- method_notes: Anticancer human tumor COR L88 cell line growth inhibition;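 further: compound exposure lasted 7 days before viability readout; percent of DMSO vehicle-treated spheroids = 100%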
- measurement_conditions: second compound 0.003 µM; first compound 0.3 µM; hits give low values
Listing of recorded viability, T/C by entry.

{"molecule": "Cn1ncnc1[C@H]1c2n[nH]c(=O)c3cc(F)cc(c23)N[C@@H]1c1ccc(F)cc1 + COc1cc2c(cc1O)CCNC21CSC2c3c(OC(C)=O)c(C)c4c(c3C(COC1=O)N1C(O)C3Cc5cc(C)c(OC)c(O)c5C(C21)N3C)OCO4", "target_or_test_system": "COR L88 complex tumor spheroid viability", "viability, T/C (%)": 0.79}
{"molecule": "CNCc1ccc(-c2cc(-c3nc(-c4ccc(S(=O)(=O)C(C)C)cc4)cnc3N)on2)cc1 + COc1cc2c(cc1O)CCNC21CSC2c3c(OC(C)=O)c(C)c4c(c3C(COC1=O)N1C(O)C3Cc5cc(C)c(OC)c(O)c5C(C21)N3C)OCO4", "target_or_test_system": "COR L88 complex tumor spheroid viability", "viability, T/C (%)": 0.62}
